# targetSystem: Isoleucyl-tRNA synthetase (Rattus norvegicus, UniProt O35880)
# Sequence (O35880 whole entry): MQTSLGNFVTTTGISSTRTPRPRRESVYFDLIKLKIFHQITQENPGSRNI
propertyLabel: IC50 (µM)
Return type: number; implicit unit µM.

CCCC[C@@]1(OC(=O)CCC(=O)OC)CC[C@]2(CC[C@H](C)[C@@H](C/C=C(C)/C=C/[C@H](O)[C@@H](C)/C=C/C(=O)OC)O2)O[C@H]1/C=C/C(C)=C/C(=O)O ... 1.45
CCCC[C@@]1(OC)CC[C@]2(CC[C@H](C)[C@@H](C/C=C(C)/C=C/[C@H](O)[C@@H](C)/C=C/C(=O)O)O2)O[C@H]1/C=C/C(C)=C/C(=O)O ... 0.0444

Okay, next one:
query: What measured IC50 goes with CCCC[C@@]1(OC(=O)CCC(=O)O)CC[C@]2(CC[C@H](C)[C@@H](C/C=C(C)/C=C/[C@H](OC)[C@@H](C)/C=C/C(=O)O)O2)O[C@H]1/C=C/C(C)=C/C(=O)O ?
result: 0.245

* * *

Quick list: Reversion per entry.
# Tested on: NRK
# protocolText: Morphological reversion of src-transformed-NRK cells at 10 ug/mL
# Format: functional, Rattus norvegicus
Value expressed in %; do not type the unit.

CCCC[C@@]1(OC(=O)CCC(=O)O)CC[C@]2(CC[C@H](C)[C@@H](C/C=C(C)/C=C/[C@H](O)[C@@H](C)/C=C/C(=O)O)O2)O[C@H]1/C=C/C(C)=C/C(=O)O ... 50
CCCC[C@@]1(OC(=O)CCC(=O)O)CC[C@]2(CC[C@H](C)[C@@H](C/C=C(C)/C=C/[C@H](OC(C)=O)[C@@H](C)/C=C/C(=O)O)O2)O[C@H]1/C=C/C(C)=C/C(=O)O ... 50

query: Entry under review: CCCC[C@@]1(OC)CC[C@]2(CC[C@H](C)[C@@H](C/C=C(C)/C=C/[C@H](O)[C@@H](C)/C=C/C(=O)O)O2)O[C@H]1/C=C/C(C)=C/C(=O)O . Reported Reversion?
result: 50

* * *

Entries and their IC50
# targetSystem: Isoleucyl-tRNA synthetase (Rattus norvegicus)

A selection of reference data follows.
CCCC[C@]1([C@H](/C=C/C(C)=C/C(=O)O)OC(=O)CCC(=O)O)CC[C@]2(CC[C@H](C)[C@@H](C/C=C(C)/C=C/[C@H](O)[C@@H](C)/C=C/C(=O)O)O2)O1 ... < 1510 nM
CCCC[C@@]1(OC(=O)CCC(=O)O)CC[C@]2(CC[C@H](C)[C@@H](C/C=C(C)/C=C/[C@H](OC(C)=O)[C@@H](C)/C=C/C(=O)O)O2)O[C@H]1/C=C/C(C)=C/C(=O)O ... < 1420 nM

Please turn your attention to the following entry.
query: Param item = CCCC[C@]1([C@H](/C=C/C(C)=C/C(=O)O)OC)CC[C@]2(CC[C@H](C)[C@@H](C/C=C(C)/C=C/[C@H](O)[C@@H](C)/C=C/C(=O)O)O2)O1 ; retrieve measured IC50.
result: < 1740 nM
